system.under.test: T1, Abp1, P15891
T1 sequence (P15891 535-592, looked up): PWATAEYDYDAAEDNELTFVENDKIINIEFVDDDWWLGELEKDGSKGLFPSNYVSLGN
test.method.notes: SPOT array
condition: median of control spots 935
parameter.measured: SPOT intensity

PPPPPPPPPPPLPQS | 0
QPWTDQFEKLEKEVS | 0
SSSSTPPTLPPRRIE | 19
SNRRPVPRRPSQPLN | 139
NNFYRPLLRSVLVLL | 14

[P] VDFTLPPPPPPPGLD
[Q] VLRFLGFPLPIFEKG
**Q:** Parameter metric = SPOT intensity. Return the lower-valued option from P and Q . When you have decided, please share the label of that item.
**A:** P
(P: 0, Q: 19)

# credit: paper PMC2756588
